Measured IC50, listed per entry.
Tested on: Karenia brevis
Assay: Anti-phytoplankton activity against Karenia brevis assessed as change in chlorophyll a level measured after 72 hrs by fluorescence based analysis
Format: functional, organism-based
Give a bare numeral; the unit µM is implied.

Known IC50 results, listed for orientation:
CC(=O)c1nc(C(=O)NCCc2c[nH]c3ccc(F)cc23)cs1 | 186
CC(=O)c1nc(C(=O)NCCc2c[nH]c3cc(F)ccc23)cs1 | 107
CC(=O)N[C@H](C)c1nc(C(=O)NCCc2c[nH]c3cc(F)ccc23)cs1 | 28.7
N#Cc1c(-c2ccc(Cl)cc2)[nH]c(C(F)(F)F)c1Br | 1.35

Input C[C@@H]1C[C@@H]([C@H](O)CC2CC(=O)NC(=O)C2)C(=O)[C@@H](C)C1 [CYCLOHEXIMIDE] . Output IC50: 0.55
